- Test system: primary rat microglia
- Protocol Details: Cell toxicity (dead cells, size <150 μm2) in LPS assay
- Reported Conditions: primary microglia HTS, LPS stimulation; decreased size (<150 μm^2) as marker of toxicity
Where a SMILES comes first, the peptide text is derived from it. Bridges are numbered along the chain shown (N, C = ends). [ ]: non-standard residue; d: D form. The star is where a group is joined. X1 = CC[C@H](C)CCCCC(=O)*; Dab = NCC[C@H](N)C(=O)O

{"Compound": "NC(=O)NC(=O)Cc1ccccc1 [Phenacemide]", "Measurement Unit": "%", "LPS % cell toxicity": 1}
{"Compound": "CN(C)CCOC(=O)COc1ccc(Cl)cc1 [Meclofenoxate]", "Measurement Unit": "%", "LPS % cell toxicity": 0}
{"Compound": "CC[C@H](C)CCCCC(=O)N[C@@H](CCN)C(=O)N[C@H](C(=O)N[C@@H](CCN)C(=O)N[C@H]1CCNC(=O)[C@H]([C@@H](C)O)NC(=O)[C@H](CCN)NC(=O)[C@H](CCN)NC(=O)[C@H](CC(C)C)NC(=O)[C@@H](Cc2ccccc2)NC(=O)[C@H](CCN)NC1=O)[C@@H](C)O [Polymyxin B1] (X1-[Dab]T[Dab][Dab][Dab][dF]L[Dab][Dab]T; lactam 4-C)", "Measurement Unit": "%", "LPS % cell toxicity": 1}
